# Experimental System: GABA-A receptor; anion channel (Homo sapiens) (UniProt P14867+P47870+P18507+P28472+P48169+Q99928+Q9UN88+P34903+O00591+O14764+Q8N1C3+P18505+P78334+P47869+P31644+Q16445)
# Protocol Details: Gamma-aminobutyric acid A receptor modulating activity (expressed as biological activity).
# Assay type: protein-complex assay
Value Type: BA

Sample answers from the record:
Compound: C=CC[C@H]1C(=O)OC[C@H]1NCc1ccccc1
BA: 73

Compound: O=C1C[C@H](NCc2ccccc2)CO1
BA: 0

[I] CCCC1(CCC)C(=O)OCC1NC(=O)OCc1ccccc1 (single isomer, unassigned)
[II] C=CC[C@@H]1C(=O)OC[C@H]1NCc1ccccc1
[III] C=CCOC(=O)N[C@@H]1COC(=O)C1(CCC)CCC
[IV] CCCC1(CCC)C(=O)OC[C@H]1NC(=O)c1ccccc1
INPUT: rank_up(items): orders items by reported BA in ascending numerical order. Give the labels in the order specified.
OUTPUT: II, I, IV, III
